Target: T1, human CD25 (NP_000408.1) (Met 1-Cys 213) C-terminally fused with 6-histidine tag (human, UniProt P01589 22-213)
T1 construct: range 1-213; Expressed in CHO-K1 cells; also called human CD25-his
T1 sequence: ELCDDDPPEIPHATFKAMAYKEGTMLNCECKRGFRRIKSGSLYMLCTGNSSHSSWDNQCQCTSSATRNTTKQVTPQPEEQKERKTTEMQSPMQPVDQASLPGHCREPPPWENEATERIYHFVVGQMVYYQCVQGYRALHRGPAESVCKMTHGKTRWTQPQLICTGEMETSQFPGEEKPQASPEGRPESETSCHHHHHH
Assay: SPR (BIAcore X100), human CD25-his captured by anti-histidine antibody, antibody as analyte, 1:1 model
What kon was measured for each of the following?

Here are 3 binders together with their reported answers.
BINDER	RESULT TYPE	RESULT
chimeric antibody 2046-24H2L1 (antibody, human IgG1, kappa, V domains shown, Chimeric, human IgG1/kappa; also called 2046-24ix) VH: DVQLQESGPGLVKPSQSLSLTCTVTGYSITSDYAWNWIRQFPGNKLEWMGYISYGGTTIYNPSLKSRISITRDTSKNQFFLQLNSVTTEDTATYYCARWLLQNYYAMDYWGQGTSVTVSS VL: DVVMTQTPLSLPVSLGDQASISCRSSQSLVHSNGNTYLHWYLQKPGQSPKVLIYKVSNRFSGVPDRFSGSGSGTDFTLKISRVEAEDLGVYFCSQNTHVPLTFGAGTKLELKR	kon	458000 M⁻¹ s⁻¹
chimeric antibody 2047-10H1L2 (antibody, human IgG1, kappa, V domains shown, Chimeric, human IgG1/kappa; also called 2047-10ix) VH: QVQLQQSGPELVRPGVSVKISCKGSGYTFTDYAMHWVKQSHAKSLEWIGVISTYNGNTNYNQKFKGKATMTVDKSSSTAYMELARLTSEDSAIYYCARSYGNYPFDYWGQGTTLTVSS VL: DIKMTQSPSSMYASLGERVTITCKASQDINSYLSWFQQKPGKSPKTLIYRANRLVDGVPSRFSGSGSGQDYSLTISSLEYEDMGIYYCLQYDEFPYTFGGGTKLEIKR	kon	788000 M⁻¹ s⁻¹
chimeric antibody 2046-2H1L1 (antibody, human IgG1, kappa, V domains shown, Chimeric (murine V, human IgG1/kappa); also called 2046-2ix) VH: DVQLQESGPGLVKPSQSLSLTCTVTGYSITSDYAWNWIRHFPGNKLEWMGYITYSGSTVYNPSLKSRISITRDTSKNHFFLQLNSVTTEDTATYYCARWLLQIYYAMDYWGQGTSVTVSS VL: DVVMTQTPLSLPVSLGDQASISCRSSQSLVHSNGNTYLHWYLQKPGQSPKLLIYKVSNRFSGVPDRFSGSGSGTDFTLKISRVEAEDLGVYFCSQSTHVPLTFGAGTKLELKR	kon	745000 M⁻¹ s⁻¹

Note: attention shifts to another entry.
IN: // kon lookup, key: chimeric antibody 2047-3H8L2 (antibody, human IgG1, kappa, V domains shown, Chimeric, human IgG1/kappa; also called 2047-3ix) VH: QVQLKQSGAELVKPGASVKMSCKTSGYTFTDYVISWVKQRTGQGLEWIGEIYPGSGSTYYNEKFKGKATLTADISSNTAYMQLSSLTSEDSAVYFCASINFDYWGHGTTLTVSS VL: DIVMTQSPATLSVTPGDRVSLSCRASQSISDYLHWYQQKSHESPRLLIKYASQSISGIPSRFSGSGSGSDFTLSINSVEPEDVGVYYCQNGHSFPYTFGGGTKLEIKR
OUT: 236000 M⁻¹ s⁻¹
